Tested on: Fer (mouse)
TEST_DETAILS: phosphorylation enrichment, bacterial display (enrichment ratio); higher = better substrate or ligand; peptides without Tyr show the background
Answer each item with its documented phosphorylation enrichment.
Numbers only.

SEQ_STRING | SYSTEM | QUANTITY_NAME | OBSERVED
MFNPCYGLFEY [NEDD4L_Y680_Y679C] | Fer (mouse) | phosphorylation enrichment | 1.6

Can you give me phosphorylation enrichment for all of these, one by one?
1. SFDLDYDSVQP [MYC_Y16_N11S_YF]
2. GDYYRSLAEVA [YWHAG_Y133_Y133S]
3. SIKDKYVTAVF [KCNH2_Y611_L615V_YF]

Response line:
1: 0.748; 2: 0.419; 3: 0.523

Can you give me phosphorylation enrichment for all of these, one by one?
1. DPLLTYQFPPK [LMNA_Y481_R482Q]
2. LTGIAYGLPHW [SLC22A14_Y291_S292G]
3. LEIETYRRLLD [KRT12_Y429]
4. PDNKPYIFKVF [PIK3AP1_Y553_E551K]
5. EERKTYVNTML [TEK_Y1102_T1106M]
6. DLVRPYVHKIL [SF3B1_Y570]
7. SGPRRYTVAAL [TTR_Y125_I127V]
8. VMIYAYLLHRG [PTEN_Y138_C136Y]

Response line:
1: 0.498; 2: 0.424; 3: 0.471; 4: 0.728; 5: 0.42; 6: 0.534; 7: 0.393; 8: 0.371

Can you give me phosphorylation enrichment for all of these, one by one?
1. GVIRHYVVCST [BTK_Y334]
2. LAIEWYVVVCK [RHO_Y136_R135W]
3. HSVVQYVGGVM [FGGY_Y136_L134V]

Response line:
1. 0.566
2. 0.847
3. 0.643

Can you give me phosphorylation enrichment for all of these, one by one?
1. IYRAAYFGVYD [SLC25A4_Y191]
2. DRLASYLDKVP [KRT14_Y129_R134P]
3. FKIFRYTLNDN [FN1_Y1975_L1974R_YF]
4. NDFGNYSNQSS [HNRNPA1_Y318_N319S]

Response line:
1: 0.937; 2: 0.499; 3: 0.403; 4: 0.43

###

Tested on: AncSZ
TEST_DETAILS: phosphorylation enrichment, bacterial display (enrichment ratio); higher = better substrate or ligand; peptides without Tyr show the background
Answer each item with its documented phosphorylation enrichment.
Give bare numbers.

SEQ_STRING | SYSTEM | QUANTITY_NAME | OBSERVED
HHIDYYKKTTN [FGFR1_Y654] | AncSZ | phosphorylation enrichment | 0.577
PSDSGYSYETI [MAP1B_Y1921] | AncSZ | phosphorylation enrichment | 1.35

Can you give me phosphorylation enrichment for all of these, one by one?
1. KWRGQYDVAIE [BTK_Y425_K430E]
2. TYGNLYGSRKQ [YIPF7_Y59_A54T]
3. LVRPPYSYLAL [FOXI1_Y126_S129L]
4. LAIEWYVVVCK [RHO_Y136_R135W]
5. YNDSTYNQQLI [ZPLD1_Y198]
6. KSDVVYTDWKK [ORM1_Y175]

Response line:
0.631
0.655
0.602
2.49
0.801
0.856

Can you give me phosphorylation enrichment for all of these, one by one?
1. TKGNEYVFRVA
2. QPGTDYKIFLF [FN1_Y1970_YF]
3. NNHGNYIVHLG [ETFDH_Y172_R175H]
4. SHMVNYQPFRK [TEX37_Y25_D24N_YF]
5. SSTAMYSAPGR [PSMB1_Y8]
6. TKEPKYGGAGS [KIAA1210_Y1615_E1616G]
7. KASGKYYAMKI [AKT3_Y173]
8. AKKIKYFEGVS [PRKDC_Y682]

Response line:
1: 0.826; 2: 2.09; 3: 0.71; 4: 0.528; 5: 0.75; 6: 0.5; 7: 0.499; 8: 0.429

###

SYSTEM: SHP2-C SH2
TEST_DETAILS: SH2 binding enrichment of the phosphorylated peptide, bacterial display (enrichment ratio); higher = better substrate or ligand; peptides without Tyr show the background
Answer each item with its documented SH2 binding enrichment.

Known results for sequences:
SEQ_STRING | SH2 binding enrichment
HILQLYRCREE [ALPK3_Y342_T338I] | 0.748
FSIAQYCCRMG [LRRK2_Y2023_G2019S_YF] | 0.826
FAAAGYGSLEA [EPHA10_Y959] | 0.701
LAETSYVKVLE [MAGEA1_Y276] | 7
REVPVYISEDS [SYNM_Y460_G462S] | 0.632

Can you give me SH2 binding enrichment for all of these, one by one?
1. GYAGKYIAMVM [CYP19A1_Y441_C437Y]
2. WNGDKYAATTT [TRIM39_Y439]
3. ALCHYYKLNII [ETV6_Y402_R399C]
4. IYRAAYFGVYD [SLC25A4_Y191]
5. CTTIHYNYMHN [TP53_Y234_C238H]
6. LAVVDYIRRQK [ATM_Y1915_M1916I]
7. TNYRFYLRSLE [MTM1_Y71_L70F]

Response line:
1. 0.563
2. 0.61
3. 1.34
4. 1.19
5. 0.857
6. 0.461
7. 0.717

Can you give me SH2 binding enrichment for all of these, one by one?
1. GSIQQYTYKQE [PRG4_Y1271_I1272T]
2. HSLHDYKEALM [ADA2_Y337]
3. KYVKMCDNHQL [MYO9A_Y203_Y203C]
4. FLEEEYVKAVG [TF_Y674_G671E_YF]
5. FKDGQYWIRGW [ACSF3_Y466_R471W]
6. PLQKTYNYNVL [SLC4A1_Y553]
7. LTDTVYSSSSA [OR4C12_Y71_I67T]

Response line:
1: 0.599; 2: 0.426; 3: 0.921; 4: 0.934; 5: 0.733; 6: 0.766; 7: 0.899

Can you give me SH2 binding enrichment for all of these, one by one?
1. PHMQTYEVDHN [SDHB_Y61_L65H]
2. GQRDLYSGLNQ [CD3E_Y199]
3. VVSMNYRVGAL [BCHE_Y174]
4. ATGGFYSYGGG [KRT24_Y120]
5. TKYVAYIESQG [KDM4B_Y34_N29T]
6. RAVLLYEFVGK [NATD1_Y45_YF]

Response line:
[0.604, 0.574, 0.771, 0.871, 8.32, 1.5]

###

SYSTEM: FGFR1 (UniProt P11362)
Sequence (P11362 whole entry, looked up): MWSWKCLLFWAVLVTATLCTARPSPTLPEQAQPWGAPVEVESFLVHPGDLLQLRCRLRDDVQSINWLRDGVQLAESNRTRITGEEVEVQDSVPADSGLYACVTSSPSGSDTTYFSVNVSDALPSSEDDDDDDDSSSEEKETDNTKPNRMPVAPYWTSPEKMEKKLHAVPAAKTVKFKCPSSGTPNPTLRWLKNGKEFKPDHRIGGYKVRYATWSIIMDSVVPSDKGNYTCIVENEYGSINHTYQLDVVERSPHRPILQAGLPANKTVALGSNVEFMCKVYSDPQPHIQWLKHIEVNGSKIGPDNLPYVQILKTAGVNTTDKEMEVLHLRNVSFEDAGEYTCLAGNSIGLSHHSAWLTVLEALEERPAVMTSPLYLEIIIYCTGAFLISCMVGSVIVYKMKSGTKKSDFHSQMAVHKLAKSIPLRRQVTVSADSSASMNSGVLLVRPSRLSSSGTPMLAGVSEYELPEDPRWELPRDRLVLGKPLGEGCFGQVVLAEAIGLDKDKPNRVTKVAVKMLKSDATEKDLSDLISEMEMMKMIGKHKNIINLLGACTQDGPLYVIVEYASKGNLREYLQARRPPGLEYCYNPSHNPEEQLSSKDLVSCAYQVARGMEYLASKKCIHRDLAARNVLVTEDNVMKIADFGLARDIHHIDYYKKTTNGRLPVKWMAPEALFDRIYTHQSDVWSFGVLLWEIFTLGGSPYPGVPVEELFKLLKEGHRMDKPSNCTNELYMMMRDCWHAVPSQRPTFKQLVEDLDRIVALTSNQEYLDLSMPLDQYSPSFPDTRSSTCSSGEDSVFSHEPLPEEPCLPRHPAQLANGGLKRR
TEST_DETAILS: phosphorylation enrichment, bacterial display (enrichment ratio); higher = better substrate or ligand; peptides without Tyr show the background
Class (by phosphorylation enrichment) -- 1 (below 0.5), 2 (0.5 to below 0.7), 3 (0.7 or more)

Please review the following examples before continuing.
SEQ_STRING | CAT
DDEENYENVPR [FCRL3_Y722] | 2
LSVMSYDLGMF [GBA3_Y174] | 3
KSDVVYTDWKK [ORM1_Y175] | 2

Prompt line: Note: place this sequence into its band. Item: TGDVQYRSSVR [FREM2_Y2158]
Response line: 1

Prompt line: Note: place this sequence into its band. Item: IYRAAYFGVYD [SLC25A4_Y191]
Response line: 2

Prompt line: Note: place this sequence into its band. Item: SFDLDYDSVQP [MYC_Y16_N11S_YF]
Response line: 2

###

Answer each item with its documented SH2 binding enrichment.
SYSTEM: c-Src SH2
TEST_DETAILS: SH2 binding enrichment of the phosphorylated peptide, bacterial display (enrichment ratio); higher = better substrate or ligand; peptides without Tyr show the background
Numbers only.

Known results for sequences:
SEQ_STRING | SH2 binding enrichment
GFEVVYVTEPI [HSP90AB1_Y512_M513V] | 0.495
HKLSSYEYDFE [BTK_Y40_Y39S] | 1.33
ESMLRYDVFGG [STOX1_Y607_E608D_YF] | 1.56

Can you give me SH2 binding enrichment for all of these, one by one?
1. CTTIHYNYMHN [TP53_Y234_C238H]
2. SGEKPYKCSEC [ZNF543_Y283]
3. CRAVKYLQMVD [AVPR2_Y117_G122D]
4. ICANKYMVKSC [RPL10_Y75]
5. KQINDYVEKGT [SERPINA1_Y184]
6. GDYYRSLAEVA [YWHAG_Y133_Y133S]
7. DLVRPYVHKIL [SF3B1_Y570]
8. TCRPPYYHRNC [HGD_Y333_F329C]

Response line:
[1.86, 0.488, 0.532, 1.13, 0.528, 0.699, 0.679, 1.01]

Can you give me SH2 binding enrichment for all of these, one by one?
1. RGYRVCYTPDS [PTPRF_Y450_Y450C]
2. IHETTYNSIMK [ACTA1_Y281]
3. SQAPGYSFTAA [CYCS_Y47_G42S_YF]

Response line:
1. 0.41
2. 1.93
3. 0.437
